Reported Kb is given for each of the following compounds.
Target: angiotensin II contracture of rabbit aortic strip (Oryctolagus cuniculus, UniProt P34976)
Construct: A spiral preparation of the aorta having a width of 1.5 to 2 mm and a length of 15 to 20 mm was prepared therefrom; from tissue; host or cells: thoracic aorta of male New Zealand white rabbit, spiral strip
Sequence (P34976 1-359): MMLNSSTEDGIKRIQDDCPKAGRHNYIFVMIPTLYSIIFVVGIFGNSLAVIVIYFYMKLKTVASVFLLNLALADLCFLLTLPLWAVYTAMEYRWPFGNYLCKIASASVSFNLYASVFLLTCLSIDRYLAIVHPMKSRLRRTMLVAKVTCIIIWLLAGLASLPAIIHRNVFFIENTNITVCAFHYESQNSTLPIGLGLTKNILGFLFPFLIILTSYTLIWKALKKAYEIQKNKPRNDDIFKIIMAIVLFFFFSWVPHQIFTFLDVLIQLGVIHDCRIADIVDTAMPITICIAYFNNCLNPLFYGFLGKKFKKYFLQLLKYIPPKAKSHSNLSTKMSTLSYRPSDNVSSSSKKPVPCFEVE
Assay: Angiotensin II contracture antagonism through the use of rabbit aortic strip
Type: cell-based, rabbit (New Zealand white)
Conditions: negative log of antagonist concentration giving dose ratio 2, Schild's equation, 40 min preincubation, read-out: pA2 (converted)
Experimental: (1) Angiotens in II contracture antagonism through the use of rabbit aortic strip A male New Zealand white rabbit having a weight of 2 to 3 kg was anesthetized with pentobarbital sodium, and the thoracic aorta was removed. […] The contraction was recorded on a multi-pen recorder (R-10 manufactured by Rika Denki Kogyo Co., Ltd.) through a carrier amplifier (A[…] or A[…] manufactured by Nihon Koden Corp.) by making use of an isometric piezoelectric transducer ([…] manufactured by Nihon Koden Corp.). […]
PARAMETER: Kb (nM)

{"COMPOUND SMILES": "Cc1ccnc2c1nc(C1CC1)n2Cc1ccc(-c2ccccc2-c2nnn[nH]2)cc1", "UNIT STRING": "nM", "EXPERIMENTAL VALUE": 0.0229}
{"COMPOUND SMILES": "Cc1ccnc2c1nc(C1CC1)n2Cc1ccc(-c2cc(Cl)ccc2C(=O)O)cc1", "UNIT STRING": "nM", "EXPERIMENTAL VALUE": 3.39}
{"COMPOUND SMILES": "CCCc1nc2c(C)c(Cl)cnc2n1Cc1ccc(-c2ccccc2-c2nnn[nH]2)cc1", "UNIT STRING": "nM", "EXPERIMENTAL VALUE": 1.35}
{"COMPOUND SMILES": "CCCc1nc2c(Cl)ccnc2n1Cc1ccc(-c2ccccc2C(=O)O)cc1", "UNIT STRING": "nM", "EXPERIMENTAL VALUE": 8.71}
{"COMPOUND SMILES": "Cc1ccnc2c1nc(C1CC1)n2Cc1ccc(-c2ccccc2C(=O)O)cc1", "UNIT STRING": "nM", "EXPERIMENTAL VALUE": 2.14}
{"COMPOUND SMILES": "CCCc1nc2c(C)ccnc2n1Cc1ccc(-c2ccccc2-c2nn[nH]n2)cc1", "UNIT STRING": "nM", "EXPERIMENTAL VALUE": 0.0468}
{"COMPOUND SMILES": "CCCc1nc2cccnc2n1Cc1ccc(-c2cc(Cl)ccc2-c2nnn[nH]2)cc1", "UNIT STRING": "nM", "EXPERIMENTAL VALUE": 1.55}
{"COMPOUND SMILES": "CCCCc1nc2ccccc2n1Cc1ccc(-c2ccccc2-c2nn[nH]n2)cc1", "UNIT STRING": "nM", "EXPERIMENTAL VALUE": 7.76}
{"COMPOUND SMILES": "CCCc1nc2cccnc2n1Cc1ccc(-c2ccccc2-c2nn[nH]n2)cc1", "UNIT STRING": "nM", "EXPERIMENTAL VALUE": 0.832}
{"COMPOUND SMILES": "CCCc1nc2c(C)ccnc2n1Cc1ccc(-c2cc(Cl)ccc2-c2nnn[nH]2)cc1", "UNIT STRING": "nM", "EXPERIMENTAL VALUE": 0.0115}
{"COMPOUND SMILES": "CCSc1nc2c(C)ccnc2n1Cc1ccc(-c2ccccc2-c2nnn[nH]2)cc1", "UNIT STRING": "nM", "EXPERIMENTAL VALUE": 0.182}
{"COMPOUND SMILES": "CCCc1nc2c(C)cc(C)nc2n1Cc1ccc(-c2ccccc2-c2nnn[nH]2)cc1", "UNIT STRING": "nM", "EXPERIMENTAL VALUE": 0.024}
{"COMPOUND SMILES": "Cc1cc(C)c2nc(C3CC3)n(Cc3ccc(-c4ccccc4-c4nnn[nH]4)cc3)c2n1", "UNIT STRING": "nM", "EXPERIMENTAL VALUE": 0.0138}
{"COMPOUND SMILES": "CCCc1ccnc2c1nc(CC)n2Cc1ccc(-c2ccccc2-c2nnn[nH]2)cc1", "UNIT STRING": "nM", "EXPERIMENTAL VALUE": 23.4}
{"COMPOUND SMILES": "CCOc1nc2c(C)cc(C)nc2n1Cc1ccc(-c2ccccc2-c2nnn[nH]2)cc1", "UNIT STRING": "nM", "EXPERIMENTAL VALUE": 0.182}
{"COMPOUND SMILES": "CCc1nc2c(C)ccnc2n1Cc1ccc(-c2ccccc2-c2nnn[nH]2)cc1", "UNIT STRING": "nM", "EXPERIMENTAL VALUE": 0.0912}
{"COMPOUND SMILES": "COc1nc2c(C)ccnc2n1Cc1ccc(-c2ccccc2-c2nnn[nH]2)cc1", "UNIT STRING": "nM", "EXPERIMENTAL VALUE": 0.132}
